- study system: Solute carrier family 15 member 2 (Rattus norvegicus)
- Sequence (Q63424 whole entry): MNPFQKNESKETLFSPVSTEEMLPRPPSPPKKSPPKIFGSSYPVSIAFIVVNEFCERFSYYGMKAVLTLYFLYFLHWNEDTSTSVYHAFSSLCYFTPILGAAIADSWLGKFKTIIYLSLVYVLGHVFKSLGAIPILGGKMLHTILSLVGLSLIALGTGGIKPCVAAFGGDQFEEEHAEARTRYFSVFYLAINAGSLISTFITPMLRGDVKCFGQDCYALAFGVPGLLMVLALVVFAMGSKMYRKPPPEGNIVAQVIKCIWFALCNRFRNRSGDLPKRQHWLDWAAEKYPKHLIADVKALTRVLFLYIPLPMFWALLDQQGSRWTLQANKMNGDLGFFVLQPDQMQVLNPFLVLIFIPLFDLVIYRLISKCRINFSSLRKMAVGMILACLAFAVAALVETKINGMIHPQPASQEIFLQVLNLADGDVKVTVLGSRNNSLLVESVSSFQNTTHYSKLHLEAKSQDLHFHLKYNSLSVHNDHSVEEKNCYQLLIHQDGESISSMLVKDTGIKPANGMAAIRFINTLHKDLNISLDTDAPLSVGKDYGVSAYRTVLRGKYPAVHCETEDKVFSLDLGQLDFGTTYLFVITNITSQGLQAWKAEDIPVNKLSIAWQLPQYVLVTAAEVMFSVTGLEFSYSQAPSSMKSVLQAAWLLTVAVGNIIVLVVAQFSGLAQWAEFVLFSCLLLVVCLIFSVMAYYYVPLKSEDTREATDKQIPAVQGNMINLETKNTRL
- test protocol: TP_TRANSPORTER: inhibition of Gly-Sar uptake (Gly-Sar: 20 uM) in PEPT2-expressing LLC-PK1 cells
property name: IC50 (µM)
Supply the numeric figure in µM, leaving out any unit text.

Recall and state the measured IC50 for CC(C)[C@H]1CC[C@H](C(=O)N[C@H](Cc2ccccc2)C(=O)O)CC1 [NATEGLINIDE] . 70
